experiment: Bioavailability testing in rats (24 h urinary H2G recovery); type: in vivo; conditions: Table 2; rats, 0.1 mmol/kg per oral, 24 hour urinary H2G recovery as percentage of that after 0.1 mmol/kg H2G i.v.
endpointName: Bioavailability (%)
# unit: % | format: bare number

See these solved cases before continuing.
molecule	valueReported
CC(=O)CCCC(=O)OC[C@H](CCOC(=O)[C@@H](N)C(C)C)Cn1cnc2c(=O)[nH]c(N)nc21	52
CCCCCCCCCCCCCCCCCC(=O)OCC[C@@H](CO)Cn1cnc2c(=O)[nH]c(N)nc21	7
CCCCCCCCCCCCCCCCCC(=O)OC[C@H](CCOC(=O)[C@@H](N)[C@@H](C)CC)Cn1cnc2c(=O)[nH]c(N)nc21	53

# input for lookup
Would you mind telling me what Bioavailability value was observed for Nc1nc2c(ncn2CC(CO)CCO)c(=O)[nH]1 (stereo not shown) [Comparative example 1, reference compound] ?
8
